Overview of reported pEC50 across a group of binders:
Molecular target: T1, human LAG3, full length, stably expressed on cells (human, UniProt P18627 23-525)
T1 construct: whole, on cells; also called CHOK1-human LAG3
T1 sequence (looked up): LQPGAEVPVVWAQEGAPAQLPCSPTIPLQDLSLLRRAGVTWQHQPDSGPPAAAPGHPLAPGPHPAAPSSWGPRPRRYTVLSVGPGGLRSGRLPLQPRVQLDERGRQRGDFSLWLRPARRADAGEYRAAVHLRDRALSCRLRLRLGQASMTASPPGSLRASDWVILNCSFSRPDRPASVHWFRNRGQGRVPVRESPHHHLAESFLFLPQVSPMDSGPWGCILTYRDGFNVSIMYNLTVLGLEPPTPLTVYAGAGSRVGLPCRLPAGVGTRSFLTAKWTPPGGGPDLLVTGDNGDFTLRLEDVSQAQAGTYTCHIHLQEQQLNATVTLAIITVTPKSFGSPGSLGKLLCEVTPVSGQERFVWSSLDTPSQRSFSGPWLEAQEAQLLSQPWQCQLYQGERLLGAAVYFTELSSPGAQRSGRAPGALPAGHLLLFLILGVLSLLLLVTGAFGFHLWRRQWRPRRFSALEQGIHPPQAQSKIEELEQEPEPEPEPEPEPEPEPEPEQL
Experiment: FACS on 293F-human LAG3 cells
Please keep in mind that pEC50 is minus log10 of the molar concentration; only the number is needed.

Answered examples (2):
Binder	pEC50
Antibody 038 (antibody, V domains shown, mouse hybridoma antibody) VH: DVQVQESGPGLVKPSQSLSLTCSVTGYSITSGYYWNWIRQFPGNKLEWMGYISYDGSNEYNLSLKNRLSITRDTSKNQFFLKLNSVTTEDTATYYCAREEDGYYGGMDYWGQGTSVTVSS VL: DIVMTQSHKFMSASVGVRVSITCRASQDVDTAVAWYQQKPGQSPKLLIYWASTRHTGVPDRFTGSGSGTDFTLTISNVQSEDLADYFCQQYSSYPYTFGGGTKLEIK	8.95
Antibody 035 (antibody, V domains shown, mouse hybridoma antibody) VH: QVQLQQSGAELARPGASVKLSCKASGYSFTSYGINWVKQRTGQGLEWIGEIYPRSGNTYYNEKFKDKATLTADKSSSTAYMELRSLTSEDSAVYFCARGGTYDGYYYAMDFWGQGTSVTVSS VL: DIVLTQSPASLAVSLGQRATISCRASESVDNFGSSFLHWYQQKPGQAPKLLIYRASNLESGIPARFSGSGSRTDFTLTINPVETDDVATYYCQQVNKDPRTFGGGTKLEIK	9.18

Would you kindly look at the next entry?
Prompt: Quick one: pEC50 of Antibody 021 (antibody, V domains shown, mouse hybridoma antibody) VH: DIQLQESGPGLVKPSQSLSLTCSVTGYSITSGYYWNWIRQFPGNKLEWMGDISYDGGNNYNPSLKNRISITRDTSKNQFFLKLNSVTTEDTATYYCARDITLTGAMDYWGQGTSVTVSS VL: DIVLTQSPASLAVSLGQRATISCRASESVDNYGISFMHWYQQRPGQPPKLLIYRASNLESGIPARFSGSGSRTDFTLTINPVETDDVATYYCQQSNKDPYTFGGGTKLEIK ?
Completion: 8.26
